System: Influenza A H1N1
EXPERIMENTAL_PROTOCOL: microbe, parasite or virus in culture
Type: cell-based
EXPERIMENTAL_SETUP: Influenza A virus, H1N1, MDCK, read-out: EC50 Influenza A H1N1
MEASURED_QUANTITY: EC50 (µM)
Could you give me the number in µM? Just the number is fine.

Lab note: measured EC50 of NC(=O)c1ncn([C@@H]2O[C@H](CO)[C@@H](O)[C@H]2O)n1 [Ribavirin, reference compound] was 7.5

* * *

Tested on: Poliovirus 3
EXPERIMENTAL_PROTOCOL: microbe, parasite or virus in culture
Format: cell-based
EXPERIMENTAL_SETUP: read-out: EC50 PV3
MEASURED_QUANTITY: EC50

INSERT INTO measurements (smiles_notation, measured_quantity, assay_value) VALUES
  ('CC(C)n1ncc2c(C(=O)Nc3ccccc3F)cc(-c3cncs3)nc21', 'EC50', '> 25 µM'),
  ('CC(C)n1ncc2c(C(=O)Nc3ccc(F)cc3)cc(-c3ccsc3)nc21', 'EC50', '> 25 µM');

Lab note: measured EC50 of `CC(C)n1ncc2c(C(=O)Nc3cccc(S(=O)(=O)N(C)C)c3)cc(-c3cccs3)nc21` was > 10 µM

Lab note: measured EC50 of `CC(C)n1ncc2c(C(=O)Nc3ccccc3F)cc(-c3cccnc3)nc21` was > 25 µM

Lab note: measured EC50 of `CC(C)n1ncc2c(C(=O)Nc3cccnc3)cc(-c3cccs3)nc21` was 10 µM

Lab note: measured EC50 of `CC(C)n1ncc2c(C(=O)Nc3ccccc3F)cc(-c3ccccn3)nc21` was > 25 µM

Lab note: measured EC50 of `CC(C)n1ncc2c(C(=O)Nc3ccccc3F)cc(-c3ccccc3)nc21` was > 25 µM

Lab note: measured EC50 of `CC(C)n1ncc2c(C(=O)Nc3cccc(S(N)(=O)=O)c3)cc(-c3cccs3)nc21` was 5 µM

Lab note: measured EC50 of `CC(C)n1ncc2c(C(=O)N3CCc4cccnc43)cc(-c3cccs3)nc21` was > 10 µM

Sourced from patent US11787799B2
